target-desc: Recombinant human mPGES-1 (Homo sapiens)
Construct: made in house; host or cells: CHO cells (crude microsomal fractions)
procedure-text: In-vitro screening of mPGES-1 inhibitors (inhibition of PGE2 formation from PGH2, HTRF detection)
Type: biochemical
measurement-conditions: 1 μM test compound; mPGES-1 enzyme, crude microsomal fractions; read-out: Percentage inhibition at 1 μM
readout-label: inhibition at 1 µM (%)

compound-structure: CC1(C)CCC(n2nc(-c3cc(CNC(=O)C(F)(F)F)c(F)cc3Cl)[nH]c2=O)CC1
inhibition at 1 µM / %: 28

compound-structure: Cc1ccc(NC(=O)c2ccc(-n3nc(-c4c(F)cccc4Cl)[nH]c3=O)cc2)c(F)c1
inhibition at 1 µM / %: 37.4

compound-structure: CC1(C)CCC(n2nc(-c3cc(CNC(=O)C(C)(C)C)ccc3Cl)[nH]c2=O)CC1
inhibition at 1 µM / %: 76.2

compound-structure: O=c1[nH]c(-c2c(F)cccc2Cl)nn1-c1ccc(C#Cc2ccc(Cl)cc2F)cc1
inhibition at 1 µM / %: 83.9

compound-structure: COc1cc(-c2nn(-c3c(Cl)cccc3Cl)c(=O)[nH]2)ccc1NC(=O)c1cc(F)cc(F)c1
inhibition at 1 µM / %: 29.9

compound-structure: O=C(NCc1ccc(Cl)c(-c2nn(-c3ccc(C(F)(F)F)cc3)c(=O)[nH]2)c1)C(F)(F)F
inhibition at 1 µM / %: 95.3

(a) O=C(NCc1ccc(Cl)c(-n2nc(-c3ccc(C#CC4CC4)cc3)[nH]c2=O)c1)C(F)(F)F
(b) CC(C)(C)C(=O)NCc1ccc(Cl)c(-n2nc(-c3ccc(CN4CCCC4)cc3)[nH]c2=O)c1
So which one has the bigger inhibition at 1 µM here, a or b ? Bench note: the answer is the label of the chosen record.
a

* * *

Overview of recorded pIC50 for various compounds
target-desc: Recombinant human mPGES-1 (Homo sapiens, UniProt O14684)
procedure-text: In-vitro screening of mPGES-1 inhibitors (inhibition of PGE2 formation from PGH2, HTRF detection)
measurement-conditions: mPGES-1 enzyme; class symbols
pIC50: −log10 of the molar value.

compound: O=c1[nH]c(-c2c(F)cccc2Cl)nn1-c1ccc(-c2nc(-c3ccc(F)cc3)no2)cc1 [Example-30]
readout-label: pIC50
result: > 7.30

compound: COc1cc(-n2nc(-c3c(F)cccc3Cl)[nH]c2=O)ccc1C#Cc1cc(Cl)ccc1Cl [Example-59]
readout-label: pIC50
result: > 7.30

Attention now shifts to the item below.
Returns the measured pIC50 for the input compound. Input: Cc1cc(-n2nc(-c3cc(CNC(=O)C(C)(C)C)ccc3Cl)[nH]c2=O)ccc1Cl [Example-154]
> 7.30

* * *

target-desc: Recombinant human mPGES-1 (Homo sapiens)
Construct: made in house; host or cells: CHO cells (crude microsomal fractions)
Sequence (O14684 1-152): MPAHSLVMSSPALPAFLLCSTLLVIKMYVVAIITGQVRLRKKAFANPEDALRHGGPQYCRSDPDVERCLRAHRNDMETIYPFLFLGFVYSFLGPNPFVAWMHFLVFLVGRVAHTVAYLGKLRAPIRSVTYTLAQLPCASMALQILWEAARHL
procedure-text: In-vitro screening of mPGES-1 inhibitors (inhibition of PGE2 formation from PGH2, HTRF detection)
Format: biochemical
measurement-conditions: 10 μM test compound; mPGES-1 enzyme, crude microsomal fractions; read-out: Percentage inhibition at 10 μM
readout-label: inhibition at 10 µM (%)

compound: CC(C)(C)C(=O)NCc1ccc(Cl)c(-c2nn(-c3ccc(Cl)c(F)c3)c(=O)[nH]2)c1 [Example-123]
inhibition at 10 µM (%): 100
--
compound: O=C(NCc1ccc(Cl)c(-c2nn(-c3ccc(C(F)(F)F)cc3)c(=O)[nH]2)c1)c1ccno1 [Example-105]
inhibition at 10 µM (%): 96
--
compound: O=C(NCc1ccc(Cl)c(-c2nn(-c3ccc(C(F)(F)F)cc3)c(=O)[nH]2)c1)C1CCCC1 [Example-185]
inhibition at 10 µM (%): 98.3

* * *

IC50 for assorted compounds
target-desc: Recombinant human mPGES-1 (Homo sapiens, UniProt O14684)
Sequence (O14684 1-152): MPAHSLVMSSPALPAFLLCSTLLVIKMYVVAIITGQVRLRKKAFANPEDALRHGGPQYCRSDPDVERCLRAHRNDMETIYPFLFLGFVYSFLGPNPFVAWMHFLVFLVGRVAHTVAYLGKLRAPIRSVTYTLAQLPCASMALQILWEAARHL
procedure-text: In-vitro screening of mPGES-1 inhibitors (inhibition of PGE2 formation from PGH2, HTRF detection)
measurement-conditions: mPGES-1 enzyme; class symbols

compound-structure: COc1cc(-n2nc(-c3c(Cl)cccc3Cl)[nH]c2=O)ccc1-c1nc(C(C)C)no1
readout-label: IC50
result: 50 to 100 nM

compound-structure: COc1cc(-n2nc(-c3c(F)cccc3Cl)[nH]c2=O)ccc1C(=O)Nc1cc(C(F)(F)F)ccc1F
readout-label: IC50
result: < 50 nM

compound-structure: CC(C)C(=O)NCc1cnc(C(F)F)c(-c2nn(-c3ccc(C(F)(F)F)cc3)c(=O)[nH]2)c1
readout-label: IC50
result: < 50 nM

compound-structure: CC(C)(C)C(=O)NCc1ccc(Cl)c(-c2nn(-c3ccc(C(F)(F)F)c(F)c3)c(=O)[nH]2)c1
readout-label: IC50
result: < 50 nM

compound-structure: COc1ccc(-n2nc(-c3c(Cl)ccc(CNC(=O)C(C)(C)C)c3F)[nH]c2=O)cc1
readout-label: IC50
result: > 100 nM

Sample CC(C)(C)C(=O)NCc1ccc(Cl)c(-c2nn(-c3ccc(C#CC4CC4)cc3)c(=O)[nH]2)c1 — what was its IC50?
< 50 nM

* * *

target-desc: Recombinant human mPGES-1 (Homo sapiens, UniProt O14684)
Construct: made in house; host or cells: CHO cells (crude microsomal fractions)
procedure-text: In-vitro screening of mPGES-1 inhibitors (inhibition of PGE2 formation from PGH2, HTRF detection)
Assay type: biochemical
measurement-conditions: 1 μM test compound; mPGES-1 enzyme, crude microsomal fractions; read-out: Percentage inhibition at 1 μM
readout-label: inhibition at 1 µM (%)

compound-structure: CC(C)(C)C#Cc1ccc(-c2nn(-c3c(Cl)ccc(CNC(=O)C(C)(C)C)c3F)c(=O)[nH]2)cc1
inhibition at 1 µM [%]: 87.2

compound-structure: CC(C)(C)C(=O)NCc1ccc(Cl)c(-c2nn(-c3ccc(C#CC4CC4)cc3F)c(=O)[nH]2)c1
inhibition at 1 µM [%]: 88.2

compound-structure: COc1cc(-n2nc(-c3cc(CNC(=O)C4CC4)ccc3Cl)[nH]c2=O)ccc1-c1nc(-c2ccc(Cl)cc2)no1
inhibition at 1 µM [%]: 98.7

compound-structure: CC(C)(C)C(=O)NCc1ccc(Cl)c(-c2nn(-c3ccc(C(F)(F)F)nc3)c(=O)[nH]2)c1
inhibition at 1 µM [%]: 93.3

compound-structure: CC(C)(C)S(=O)(=O)NCc1ccc(Cl)c(-c2nn(-c3ccc(C(F)(F)F)cc3)c(=O)[nH]2)c1
inhibition at 1 µM [%]: 92.9
